tested on: NCI-H1299; test: Cytotoxicity in human NCI-H1299 cells assessed as reduction in cell viability incubated for 24 hrs by CCK8 assay; type: functional, cell-based; settings: NCI-H1299, 24 h
# IC50 per record follows

[
  {
    "molecule": "CN1CCN(c2nc(C3=C(c4c[nH]c5ccccc45)C(=O)NC3=O)c3ccccc3n2)CC1 [SOTRASTAURIN]",
    "relational operator": ">",
    "IC50 (nM)": 3200
  },
  {
    "molecule": "CN[C@@H]1C[C@H]2O[C@@](C)([C@@H]1OC)n1c3ccccc3c3c4c(c5c6ccccc6n2c5c31)C(=O)NC4=O (stereo in doubt; 15)",
    "relational operator": "=",
    "IC50 (nM)": 2030
  }
]
